Examples of molecules with documented pIC50 follow.
- Target system: MAPK14 (human)
- Measurement description: Inhibition of MAPK14 Kinase Activity
pIC50: −log10 of the molar value.

Molecule: Cc1ccc(N)cc1-c1cc2cnn(-c3ccc(F)cc3F)c2n(C)c1=O
Target system: MAPK14 (human)
Censoring sign: ≥
pIC50: 7.00

Molecule: CCNC(=O)Nc1ccc2ncc(-c3cc(Cl)c(O)c(OC)c3)nc2n1
Target system: MAPK14 (human)
Censoring sign: <
pIC50: 4.00

Molecule: CONC(=O)c1ccc(C)c(Nc2nc(NCC3CCCC(CN)C3)nc(NC3CCCCC3C)n2)c1 (stereo not drawn)
Target system: MAPK14 (human)
Censoring sign: =
pIC50: 8.70

Molecule: COC(=O)c1cc(C(=O)NCC(C)(C)C)ccc1-c1cc(C(=O)NC2CC2)ccc1C
Target system: MAPK14 (human)
Censoring sign: =
pIC50: 6.90

Molecule: CC(C)c1nnc2ccc(S(=O)(=O)c3ccccc3CNC(=O)Nc3cc(C(C)(C)C)nn3-c3ccc(O)c(Cl)c3)cn12
Target system: MAPK14 (human)
Censoring sign: =
pIC50: 6.52

Molecule: COc1ccccc1-c1nnc2sc(COc3ccccc3)nn12
Target system: MAPK14 (human)
Censoring sign: =
pIC50: 6.13

Molecule: CC(C)(C)c1cc(NC(=O)NCc2cc(F)ccc2Oc2ccc3c(cnn3CCO)c2)n(-c2ccc(CO)cc2)n1
Target system: MAPK14 (human)
Censoring sign: >
pIC50: 9.00

Molecule: O=C(CO)N1CCC(c2[nH]nc(-c3ccc(Cl)cc3)c2-c2ccncc2)CC1
Target system: MAPK14 (human)
Censoring sign: =
pIC50: 6.95

Molecule: Cc1ccc(C(N)=O)cc1Nc1nc(N[C@H]2CCNC2)nc(N(C)C2CCCCC2)n1
Target system: MAPK14 (human)
Censoring sign: =
pIC50: 6.60

Molecule: CCN1CCN(c2ccc3ncn(-c4cc(C(=O)NC5CC5)ccc4C)c(=O)c3c2)CC1
Target system: MAPK14 (human)
Censoring sign: =
pIC50: 7.64

Molecule: COc1cc2nccc(Oc3ccc(NC(=O)c4c(C)n(C)n(-c5ccccc5)c4=O)cc3F)c2cc1OC
Target system: MAPK14 (human)
Censoring sign: =
pIC50: 5.57

Molecule: CCOc1ccc2c(-c3c(-c4cccc(CC)n4)nn4ccccc34)ccnc2c1
Target system: MAPK14 (human)
Censoring sign: =
pIC50: 6.43

Origin of the recorded values: the Kinase Knowledgebase extract (Sharma et al. 2016)
